Target: rhARLBD (ligand binding domain of the rhesus monkey AR) (Macaca mulatta)
Sequence (Q6QT55 601-895): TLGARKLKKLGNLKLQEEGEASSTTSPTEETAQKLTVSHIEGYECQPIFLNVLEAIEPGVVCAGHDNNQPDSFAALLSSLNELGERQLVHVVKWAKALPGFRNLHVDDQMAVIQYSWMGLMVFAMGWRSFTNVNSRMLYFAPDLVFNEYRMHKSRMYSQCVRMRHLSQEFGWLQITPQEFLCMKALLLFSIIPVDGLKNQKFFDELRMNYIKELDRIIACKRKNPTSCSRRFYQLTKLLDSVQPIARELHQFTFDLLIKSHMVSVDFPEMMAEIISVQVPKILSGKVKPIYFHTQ
pIC50: −log10 of the molar value.
measure: pIC50

Request: Tell me its pIC50 given C[C@]1(O)CC[C@H]2[C@@H]3CCC4=CC(=O)CCC4=C3C=C[C@@]21C [R1881] as the entry.
Result: ~9.00
